- measured-on: MBP-FoxP1dN (Mus musculus, UniProt P58462 326-579)
- Sequence: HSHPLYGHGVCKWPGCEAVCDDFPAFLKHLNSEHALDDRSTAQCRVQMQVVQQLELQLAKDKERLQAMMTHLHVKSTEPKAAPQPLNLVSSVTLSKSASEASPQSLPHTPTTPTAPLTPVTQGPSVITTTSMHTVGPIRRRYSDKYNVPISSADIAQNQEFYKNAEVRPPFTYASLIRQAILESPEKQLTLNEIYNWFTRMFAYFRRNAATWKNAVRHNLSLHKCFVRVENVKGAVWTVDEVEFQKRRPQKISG
- test-description: PD-seq (MBP pull-down with sequencing); 20 mM Tris-HCl pH 7.5, 100 mM NaCl, 1.5 mM MgCl2, 0.4 uM protein, 0.1 uM dsDNA library, 30 min, room temperature, amylose pull-down; high values mean tight binding
- cond: protein: recombinant; tags: His6-MBP; chain copies: 2; dsDNA, one strand shown
The full ranking holds about 16,000 sequences; the median of “rpm ratio (pull-down/input)” is about 0.94, and the highest 2% start at about 1.7. This is one part of a sample in which the highest values are shown more often than they occur.
measure-name: binding signal

The cases that follow already have their binding signal on record.
GATGATTGTTCTCCCAGCTGATGAATTGGTGGTGTCGAGTAAACAAATTTTCCTAATCTTTCTGTTCAAGCGCCATCTAC ... 0.948 RPM ratio (pull-down/input)
GATGATTGTTCTCCCAGCTGATGAATTGTGGTTATCGAGTAAACAAATTTTCCTAATCTTTCTGTTCAAGCGCCATCTAC ... 1.27 RPM ratio (pull-down/input)
GATGATTGTTCTCCCAGCTGATGAATTGGTGTCGTCGAGTAAACAAATTTTCCTAATCTTTCTGTTCAAGCGCCATCTAC ... 1.04 RPM ratio (pull-down/input)
GATGATTGTTCTCCCAGCTGATGAATTAGGTGATTCGAGTAAACAAATTTTCCTAATCTTTCTGTTCAAGCGCCATCTAC ... 1.06 RPM ratio (pull-down/input)
GATGATTGTTCTCCCAGCTGATGAATTCTCACAGTCGAGTAAACAAATTTTCCTAATCTTTCTGTTCAAGCGCCATCTAC ... 0.875 RPM ratio (pull-down/input)
GATGATTGTTCTCCCAGCTGATGAATTTTTGGTATCGAGTAAACAAATTTTCCTAATCTTTCTGTTCAAGCGCCATCTAC ... 1.09 RPM ratio (pull-down/input)

Give binding signal for all sequences that follow.
1. GATGATTGTTCTCCCAGCTGATGAATTATTTCCTTCGAGTAAACAAATTTTCCTAATCTTTCTGTTCAAGCGCCATCTAC
2. GATGATTGTTCTCCCAGCTGATGAATTGTTGGTGTCGAGTAAACAAATTTTCCTAATCTTTCTGTTCAAGCGCCATCTAC

["1.04 RPM ratio (pull-down/input)", "1.8 RPM ratio (pull-down/input)"]

----------
- measured-on: MBP-FoxP1dN (Mus musculus, UniProt P58462 326-579)
- Sequence: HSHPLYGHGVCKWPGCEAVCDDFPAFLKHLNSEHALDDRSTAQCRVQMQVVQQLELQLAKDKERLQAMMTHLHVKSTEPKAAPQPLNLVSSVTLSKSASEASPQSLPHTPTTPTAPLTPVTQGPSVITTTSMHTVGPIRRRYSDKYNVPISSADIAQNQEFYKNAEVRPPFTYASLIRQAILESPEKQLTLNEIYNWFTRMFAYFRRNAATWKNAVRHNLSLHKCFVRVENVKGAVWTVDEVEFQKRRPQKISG
- test-description: PD-seq (MBP pull-down with sequencing); 20 mM Tris-HCl pH 7.5, 100 mM NaCl, 1.5 mM MgCl2, 0.4 uM protein, 0.1 uM dsDNA library, 30 min, room temperature, amylose pull-down; high values mean tight binding
- cond: protein: recombinant; tags: His6-MBP; chain copies: 2; dsDNA, one strand shown
Whole data set: some 16,000 sequences, median “rpm ratio (pull-down/input)” near 0.94, cut for the highest 2% near 1.7. For the sample, the highest values were picked, then their nearest neighbours and some sequences at random.
I'd appreciate it if you could supply binding signal values for the items below.

GATGATTGTTCTCCCAGCTGATGAATTTATTCTTTCGAGTAAACAAATTTTCCTAATCTTTCTGTTCAAGCGCCATCTAC ... 1.34 RPM ratio (pull-down/input)
GATGATTGTTCTCCCAGCTGATGAATTTATTGATTCGAGTAAACAAATTTTCCTAATCTTTCTGTTCAAGCGCCATCTAC ... 1.86 RPM ratio (pull-down/input)
GATGATTGTTCTCCCAGCTGATGAATTTTTTTCCTCGAGTAAACAAATTTTCCTAATCTTTCTGTTCAAGCGCCATCTAC ... 0.754 RPM ratio (pull-down/input)

Attention now turns to another entry.
Recall the reported binding signal of GATGATTGTTCTCCCAGCTGATGAATTTCTTTATTCGAGTAAACAAATTTTCCTAATCTTTCTGTTCAAGCGCCATCTAC when tested on MBP-FoxP1dN (Mus musculus, UniProt P58462 326-579).
0.979 RPM ratio (pull-down/input)

----------
- measured-on: MBP-FoxP1dN (Mus musculus, UniProt P58462 326-579)
- Sequence: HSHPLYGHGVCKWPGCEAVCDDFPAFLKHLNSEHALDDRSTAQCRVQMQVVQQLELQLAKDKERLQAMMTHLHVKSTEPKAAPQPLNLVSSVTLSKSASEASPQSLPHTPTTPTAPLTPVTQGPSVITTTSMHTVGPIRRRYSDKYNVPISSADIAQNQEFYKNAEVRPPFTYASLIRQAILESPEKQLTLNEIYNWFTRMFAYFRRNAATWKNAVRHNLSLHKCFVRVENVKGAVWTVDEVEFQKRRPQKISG
- test-description: PD-seq (MBP pull-down with sequencing); 20 mM Tris-HCl pH 7.5, 100 mM NaCl, 1.5 mM MgCl2, 0.4 uM protein, 0.1 uM dsDNA library, 30 min, room temperature, amylose pull-down; high values mean tight binding
- cond: protein: recombinant; tags: His6-MBP; chain copies: 2; dsDNA, one strand shown
Whole data set: some 16,000 sequences, median “rpm ratio (pull-down/input)” near 0.94, cut for the highest 2% near 1.7. The list comes from a sample in which the highest values are over-represented; it also holds close analogues and randomly drawn sequences.
For each of the sequences below, state its binding signal.

GATGATTGTTCTCCCAGCTGATGAATTGGTATTGTCGAGTAAACAAATTTTCCTAATCTTTCTGTTCAAGCGCCATCTAC ... 2.44 RPM ratio (pull-down/input)
GATGATTGTTCTCCCAGCTGATGAATTTCGCAGGTCGAGTAAACAAATTTTCCTAATCTTTCTGTTCAAGCGCCATCTAC ... 0.789 RPM ratio (pull-down/input)
GATGATTGTTCTCCCAGCTGATGAATTTGGTATTTCGAGTAAACAAATTTTCCTAATCTTTCTGTTCAAGCGCCATCTAC ... 1.07 RPM ratio (pull-down/input)
GATGATTGTTCTCCCAGCTGATGAATTAGGTGGGTCGAGTAAACAAATTTTCCTAATCTTTCTGTTCAAGCGCCATCTAC ... 0.78 RPM ratio (pull-down/input)

// each listed sequence needs a value for binding signal
1. GATGATTGTTCTCCCAGCTGATGAATTATGTTCATCGAGTAAACAAATTTTCCTAATCTTTCTGTTCAAGCGCCATCTAC
2. GATGATTGTTCTCCCAGCTGATGAATTATGTTCTTCGAGTAAACAAATTTTCCTAATCTTTCTGTTCAAGCGCCATCTAC
3. GATGATTGTTCTCCCAGCTGATGAATTGTCGTTGTCGAGTAAACAAATTTTCCTAATCTTTCTGTTCAAGCGCCATCTAC
4. GATGATTGTTCTCCCAGCTGATGAATTTTTGTTGTCGAGTAAACAAATTTTCCTAATCTTTCTGTTCAAGCGCCATCTAC
5. GATGATTGTTCTCCCAGCTGATGAATTGGTATTCTCGAGTAAACAAATTTTCCTAATCTTTCTGTTCAAGCGCCATCTAC
6. GATGATTGTTCTCCCAGCTGATGAATTTGGTATGTCGAGTAAACAAATTTTCCTAATCTTTCTGTTCAAGCGCCATCTAC
7. GATGATTGTTCTCCCAGCTGATGAATTACTACTGTCGAGTAAACAAATTTTCCTAATCTTTCTGTTCAAGCGCCATCTAC

["1.04 RPM ratio (pull-down/input)", "1.15 RPM ratio (pull-down/input)", "1.38 RPM ratio (pull-down/input)", "2.85 RPM ratio (pull-down/input)", "1.02 RPM ratio (pull-down/input)", "0.971 RPM ratio (pull-down/input)", "1.23 RPM ratio (pull-down/input)"]

Hello, I would appreciate it if you could give binding signal for each entry below.
1. GATGATTGTTCTCCCAGCTGATGAATTTGGCTATTCGAGTAAACAAATTTTCCTAATCTTTCTGTTCAAGCGCCATCTAC
2. GATGATTGTTCTCCCAGCTGATGAATTTTGGTATTCGAGTAAACAAATTTTCCTAATCTTTCTGTTCAAGCGCCATCTAC
3. GATGATTGTTCTCCCAGCTGATGAATTACTGTTGTCGAGTAAACAAATTTTCCTAATCTTTCTGTTCAAGCGCCATCTAC
4. GATGATTGTTCTCCCAGCTGATGAATTTCTGTTGTCGAGTAAACAAATTTTCCTAATCTTTCTGTTCAAGCGCCATCTAC

0.942 RPM ratio (pull-down/input)
1.06 RPM ratio (pull-down/input)
2.55 RPM ratio (pull-down/input)
2.16 RPM ratio (pull-down/input)
